- Assay Setup: 308.15 K; 10000 kPa; Liquid; vibrating tube
Measured Metric: mass density (kg/m3)
State the answer as a number, implicitly in kg/m3.

CCCCCCn1cc[n+](C)c1.F[B-](F)(F)F [1-hexyl-3-methylimidazolium tetrafluoroborate] = 1143.45
CCCCCCCC[n+]1ccn(C)c1.F[B-](F)(F)F [1-methyl-3-octylimidazolium tetrafluoroborate] = 1102.66
CCCCn1cc[n+](C)c1.F[B-](F)(F)F [1-butyl-3-methylimidazolium tetrafluoroborate] = 1199.2

Shifting focus to the compound that follows.
Lookup result for CCn1cc[n+](C)c1.F[B-](F)(F)F [1-ethyl-3-methylimidazolium tetrafluoroborate] ; measured mass density: 1282.35

###

- Assay Setup: 298.15 K; 30000 kPa; Liquid; vibrating tube
Below is a list of entries, each paired with its recorded mass density value.
State the answer as a number, implicitly in kg/m3.

These solved cases illustrate the format of a correct answer.
CCCCCCn1cc[n+](C)c1.F[B-](F)(F)F [1-hexyl-3-methylimidazolium tetrafluoroborate] = 1159.42
CCCCn1cc[n+](C)c1.F[B-](F)(F)F [1-butyl-3-methylimidazolium tetrafluoroborate] = 1214.97

Shifting focus to the compound that follows.
Lookup result for CCn1cc[n+](C)c1.F[B-](F)(F)F [1-ethyl-3-methylimidazolium tetrafluoroborate] ; measured mass density: 1298.17

###

Below is a list of entries, each paired with its recorded mass density value.
- Assay Setup: 283.15 K; 12000 kPa; Liquid; vibrating tube
State the answer as a number, implicitly in kg/m3.

These solved cases illustrate the format of a correct answer.
CCCCCCn1cc[n+](C)c1.F[B-](F)(F)F [1-hexyl-3-methylimidazolium tetrafluoroborate] = 1161.43
CCn1cc[n+](C)c1.F[B-](F)(F)F [1-ethyl-3-methylimidazolium tetrafluoroborate] = 1302.03

Shifting focus to the compound that follows.
Lookup result for CCCCn1cc[n+](C)c1.F[B-](F)(F)F [1-butyl-3-methylimidazolium tetrafluoroborate] ; measured mass density: 1217.77

###

- Assay Setup: 293.15 K; 6000 kPa; Liquid; vibrating tube
Below is a list of entries, each paired with its recorded mass density value.
State the answer as a number, implicitly in kg/m3.

CCCCCCn1cc[n+](C)c1.F[B-](F)(F)F [1-hexyl-3-methylimidazolium tetrafluoroborate] = 1151.81
CCCCCCCC[n+]1ccn(C)c1.F[B-](F)(F)F [1-methyl-3-octylimidazolium tetrafluoroborate] = 1110.66

Lookup result for CCCCn1cc[n+](C)c1.F[B-](F)(F)F [1-butyl-3-methylimidazolium tetrafluoroborate] ; measured mass density: 1207.96

###

Below is a list of entries, each paired with its recorded mass density value.
- Assay Setup: 293.15 K; 10000 kPa; Liquid; vibrating tube
State the answer as a number, implicitly in kg/m3.

CCCCCCn1cc[n+](C)c1.F[B-](F)(F)F [1-hexyl-3-methylimidazolium tetrafluoroborate] = 1153.7
CCCCn1cc[n+](C)c1.F[B-](F)(F)F [1-butyl-3-methylimidazolium tetrafluoroborate] = 1209.74

Lookup result for CCn1cc[n+](C)c1.F[B-](F)(F)F [1-ethyl-3-methylimidazolium tetrafluoroborate] ; measured mass density: 1293.63
